Reported values of IC50 for individual entries
# tgt: H1047R PIK3CA enzyme (Homo sapiens, UniProt P42336, H1047R)
# Sequence (P42336 whole entry H1047R): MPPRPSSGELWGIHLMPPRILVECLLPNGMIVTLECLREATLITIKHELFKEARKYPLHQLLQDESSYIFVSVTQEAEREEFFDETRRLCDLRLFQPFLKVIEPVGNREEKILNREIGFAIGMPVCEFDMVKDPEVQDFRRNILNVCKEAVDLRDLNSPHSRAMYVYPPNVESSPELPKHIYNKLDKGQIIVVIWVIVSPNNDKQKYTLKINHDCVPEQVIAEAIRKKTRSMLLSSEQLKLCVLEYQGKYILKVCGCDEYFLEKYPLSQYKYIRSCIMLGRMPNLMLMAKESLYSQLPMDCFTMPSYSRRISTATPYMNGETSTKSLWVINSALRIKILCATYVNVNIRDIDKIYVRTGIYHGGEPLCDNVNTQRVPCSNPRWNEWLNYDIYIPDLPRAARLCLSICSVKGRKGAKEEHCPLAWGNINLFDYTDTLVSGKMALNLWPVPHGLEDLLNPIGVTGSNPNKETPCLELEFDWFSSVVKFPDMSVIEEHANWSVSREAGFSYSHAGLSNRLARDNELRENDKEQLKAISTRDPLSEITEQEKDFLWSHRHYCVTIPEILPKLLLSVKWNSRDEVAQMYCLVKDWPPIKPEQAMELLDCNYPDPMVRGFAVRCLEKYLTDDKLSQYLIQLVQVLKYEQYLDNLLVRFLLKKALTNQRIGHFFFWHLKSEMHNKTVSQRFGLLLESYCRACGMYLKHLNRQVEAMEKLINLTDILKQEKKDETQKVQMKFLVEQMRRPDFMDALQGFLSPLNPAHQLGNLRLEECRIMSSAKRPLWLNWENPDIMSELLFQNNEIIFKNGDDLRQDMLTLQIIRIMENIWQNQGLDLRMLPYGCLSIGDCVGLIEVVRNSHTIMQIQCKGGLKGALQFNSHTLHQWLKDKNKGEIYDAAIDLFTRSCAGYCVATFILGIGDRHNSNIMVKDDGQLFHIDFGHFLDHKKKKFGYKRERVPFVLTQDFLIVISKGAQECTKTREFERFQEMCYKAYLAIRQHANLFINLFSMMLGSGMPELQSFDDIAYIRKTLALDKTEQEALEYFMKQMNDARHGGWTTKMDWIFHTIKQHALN
# Sequence (P27986 whole entry partner): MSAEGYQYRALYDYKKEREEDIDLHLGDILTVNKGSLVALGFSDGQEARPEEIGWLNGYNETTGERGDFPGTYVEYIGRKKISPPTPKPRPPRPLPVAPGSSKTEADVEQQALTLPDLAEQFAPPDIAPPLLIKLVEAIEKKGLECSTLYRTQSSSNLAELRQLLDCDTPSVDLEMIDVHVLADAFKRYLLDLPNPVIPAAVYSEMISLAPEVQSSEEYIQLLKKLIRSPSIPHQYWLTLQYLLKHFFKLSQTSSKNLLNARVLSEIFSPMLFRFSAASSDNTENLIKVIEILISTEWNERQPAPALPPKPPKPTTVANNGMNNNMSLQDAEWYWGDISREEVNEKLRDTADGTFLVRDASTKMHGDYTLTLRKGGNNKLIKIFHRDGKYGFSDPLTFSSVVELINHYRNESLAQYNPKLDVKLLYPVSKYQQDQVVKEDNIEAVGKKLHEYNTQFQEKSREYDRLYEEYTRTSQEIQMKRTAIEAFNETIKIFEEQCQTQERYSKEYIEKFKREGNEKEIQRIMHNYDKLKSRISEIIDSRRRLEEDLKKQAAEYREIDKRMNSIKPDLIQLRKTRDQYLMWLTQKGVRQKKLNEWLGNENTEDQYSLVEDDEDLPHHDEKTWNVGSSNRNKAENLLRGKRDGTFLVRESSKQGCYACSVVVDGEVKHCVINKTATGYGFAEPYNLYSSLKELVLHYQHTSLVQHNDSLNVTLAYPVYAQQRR
# experiment_description: ADP-Glo Biochemical PIK3CA Kinase Assay
# Protocol: Compounds to be assayed were plated in 16 doses of 1:2 serial dilutions (20 nL volume each well) on a 1536-well plate, and the plate warmed to room temperature. […] To the well was added 1 μL of 200 μM ATP and 20 μM of diC8-PIP2 in Substrate Assay Buffer (50 mM HEPES pH7.4, 50 mM NaCl, 5 mM DTT and 0.03% CHAPS) to start the reaction, and the plate was shaken for 10 seconds, then spun briefly at 1500 rpm, and then incubated for 60 minutes at room temperature. […]

[[record]]
compound = "O=C1NC(c2cc(F)ccc2Cl)c2c(NC(=O)C3CCOCC3)cc(-c3ccc4ncnn4c3)cc21 (stereo not shown) [Compound I-1821]"
result = "10 to 100 µM"

[[record]]
compound = "O=C1NC(c2cc(F)ccc2Cl)c2c(NC(=O)N3CCCC(C(F)(F)F)C3)cc(Br)cc21 (mixture of isomers) [Compound I-432]"
result = "0.5 to 1 µM"

[[record]]
compound = "N#CC[C@H](O)c1cc(NC(=O)c2cc(F)cc(C(F)(F)F)c2)c2c(c1)C(=O)N[C@H]2c1cc(F)ccc1Cl (single isomer, unassigned) [Compound I-1394]"
result = "≤ 0.1 µM"

[[record]]
compound = "O=C(Nc1cccc2c1C(c1cc(F)ccc1Cl)NC2=O)c1cc(Cl)cc2c1OCC2 (stereo not shown) [Compound I-596]"
result = "1 to 10 µM"

[[record]]
compound = "Cc1cc2cccc(C(=O)Nc3cc(Br)cc4c3C(c3cc(F)ccc3Cl)NC4=O)c2o1 (stereo not shown) [Compound I-635]"
result = "1 to 10 µM"

[[record]]
compound = "CN1CC(c2cc(NC(=O)c3cc(F)cc(C(F)(F)F)c3)c3c(c2)C(=O)NC3c2cc(F)ccc2Cl)NCC1=O (stereo not shown) [Compound I-1277]"
result = "≤ 0.1 µM"

[[record]]
compound = "Cn1cc(-c2cc(NC(=O)c3cc(F)cc(C(F)(F)F)c3)c3c(n2)C(=O)NC3c2cc(F)ccc2Cl)cn1 (stereo not shown) [Compound I-162]"
result = "≤ 0.1 µM"

[[record]]
compound = "O=C(Nc1cc(-c2ccc3cc[nH]c3c2)cc2c1C(c1cc(F)ccc1Cl)NC2=O)c1cc(F)cc(C(F)(F)F)c1 (stereo not shown) [Compound I-855]"
result = "0.1 to 0.5 µM"

[[record]]
compound = "O=C1N[C@@H](c2cc(F)ccc2Cl)c2c(NC(=O)N3C[C@H](O)c4cc(F)ccc43)cc(-c3ccc(=O)n(C(F)F)c3)cc21 (single isomer, unassigned) [Compound I-2450]"
result = "1 to 10 µM"

[[record]]
compound = "O=C(Nc1cc(-c2cnn(C(F)F)c2)cc2c1[C@H](c1cc(F)ccc1Cl)NC2=O)c1cc(F)cc(C(F)(F)F)c1 (single isomer, unassigned) [Compound I-1740]"
result = "≤ 0.1 µM"


GET /values?readout=IC50&item= Nc1ccc(Cl)c(C2NC(=O)c3cccc(NC(=O)c4cc(F)cc(C(F)(F)F)c4)c32)c1 (stereo not shown) [Compound I-429] 1 to 10 µM

GET /values?readout=IC50&item= Cc1ccccc1C1NCCc2c(Br)ccc(NC(=O)c3cc(F)cc(C(F)(F)F)c3)c21 (stereo not shown) [Compound I-1963] 10 to 100 µM

GET /values?readout=IC50&item= O=C(Nc1cccc2c1C(C1CCCCC1O)NC2=O)c1cc(F)cc(C(F)(F)F)c1 (stereo not shown) [Compound I-1820] 10 to 100 µM

GET /values?readout=IC50&item= O=C1N[C@@H](c2cc(F)ccc2Cl)c2c(NC(=O)N3C[C@H](O)c4c(F)cccc43)cccc21 (single isomer, unassigned) [Compound I-2142] ≤ 0.1 µM

GET /values?readout=IC50&item= O=C1N[C@H](c2cc(F)ccc2Cl)c2c(NC(=O)N3C[C@](O)(C(F)(F)F)c4cc(F)ccc43)cc(C(F)F)cc21 (single isomer, unassigned) [Compound I-2579] ≤ 0.1 µM

Source listed as patent US12581252B2.
